Numbers sourced from paper PMC4201300.

- TARGET_ENTITY: T1, Pellino2 FHA domain (amino acids 15–275 of Pellino2) (human, UniProt Q9HAT8 15-275)
- T1 sequence (looked up): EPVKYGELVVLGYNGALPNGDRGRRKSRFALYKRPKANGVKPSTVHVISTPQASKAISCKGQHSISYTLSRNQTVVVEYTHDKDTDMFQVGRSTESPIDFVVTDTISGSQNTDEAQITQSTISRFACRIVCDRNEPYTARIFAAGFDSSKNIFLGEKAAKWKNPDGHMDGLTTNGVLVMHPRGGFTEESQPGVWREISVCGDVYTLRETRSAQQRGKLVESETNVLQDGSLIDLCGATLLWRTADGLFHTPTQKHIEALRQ
- PROTOCOL_DETAILS: fluorescence polarisation
Square brackets hold non-standard residues; d marks the D form. pT = C[C@@H](OP(=O)(O)O)[C@H](N)C(=O)O
READOUT_KIND: pKd
# pKd: negative log10 of molar concentration; output just the value

What value of pKd has been recorded for this entry: fluorescein-YSSAS[pT]FLYP-NH2 (also: fluorescein: FITC or 5,6-FAM) [pT141+3Y peptide (IRAK1pT141 with tyrosine at position +3)]
6.74
